# System: DLD1 NRF2-WT
# applied_conditions: 72 h; CellTiter-Glo viability
test_readout: EC50 viability

Use the examples below as a reference point.
substance_smiles: O=c1ncn2nc(Sc3ccc(F)cc3F)ccc2c1-c1c(Cl)cccc1Cl
EC50 viability: > 10 µM

substance_smiles: CN1C(=O)N[C@H](Cc2c[nH]c3c(Cl)cccc23)C1=O
EC50 viability: > 10 µM

Now look at this entry.
# input Form field - read-out: EC50 viability; system: DLD1 NRF2-WT; submitted item: Clc1ccccc1C(c1ccccc1)(c1ccccc1)n1cccn1
# output > 1 µM

###

# Test system: DLD1 NRF2-WT
# procedure_summary: drug sensitivity score (DSS) viability (DSS score); higher = more sensitive; extreme values may be limits of the assay
# applied_conditions: 72 h; CellTiter-Glo viability
Consider the following compounds and their measured drug sensitivity score readings.
Response field accepts a number only; no unit should be typed.

compound: O=C(Nc1c[nH]nc1-c1nc2ccc(CN3CCOCC3)cc2[nH]1)NC1CC1 [AT9283]
value_observed: 8.6

# input Form field - read-out: drug sensitivity score; system: DLD1 NRF2-WT; submitted item: CC(C)C[C@H](NC(=O)[C@H](Cc1ccccc1)NC(=O)c1cnccn1)B(O)O [Bortezomib]
# output 27.1

# input Form field - read-out: drug sensitivity score; system: DLD1 NRF2-WT; submitted item: CC(C)(C)c1nc(-c2cccc(NS(=O)(=O)c3c(F)cccc3F)c2F)c(-c2ccnc(N)n2)s1 [Dabrafenib]
# output 1.4

# input Form field - read-out: drug sensitivity score; system: DLD1 NRF2-WT; submitted item: CN(C)Cc1c(C(=O)NCCOc2ccc(C(=O)NO)cc2)oc2ccccc12 [Abexinostat]
# output 14

# input Form field - read-out: drug sensitivity score; system: DLD1 NRF2-WT; submitted item: CCN(CCO)CCCOc1ccc2c(Nc3cc(CC(=O)Nc4cccc(F)c4)[nH]n3)ncnc2c1 [AZD1152-HQPA]
# output 6.6

# input Form field - read-out: drug sensitivity score; system: DLD1 NRF2-WT; submitted item: COc1cc2nccc(Oc3ccc(NC(=O)NC4CC4)c(Cl)c3)c2cc1C(N)=O [Lenvatinib]
# output 0.1

###

# Tested on: DLD1 NRF2-GOF
# procedure_summary: TC50 cytotoxicity; higher = less toxic
# applied_conditions: 72 h; CellTox Green cytotoxicity
test_readout: TC50 cytotoxicity

Use the examples below as a reference point.
compound: Cc1ccc(F)c(NC(=O)Nc2ccc(-c3cccc4[nH]nc(N)c34)cc2)c1 [Linifanib]
TC50 cytotoxicity: > 1 µM
--
compound: O=C(CCCCCCNC(=O)c1cnc(N(c2ccccc2)c2ccccc2)nc1)NO [Rocilinostat]
TC50 cytotoxicity: > 10 µM
--
compound: CONC(=O)c1ccccc1Nc1cc(Nc2cc(C)nn2C(C)C)ncc1Cl
TC50 cytotoxicity: > 1 µM
--
compound: CN(C)C[C@@H]1CCn2cc(c3ccccc32)C2=C(C(=O)NC2=O)c2cn(c3ccccc23)CCO1 [Ruboxistaurin]
TC50 cytotoxicity: > 10 µM
--
compound: O=C1c2c(O)ccc(O)c2C(=O)c2c(NCCNCCO)ccc(NCCNCCO)c21 [Mitoxantrone]
TC50 cytotoxicity: > 1 µM
--
compound: O=c1[nH]c(C2CCCN2)nc2c1oc1ccc(Cl)cc12 (stereo not drawn)
TC50 cytotoxicity: > 10 µM
--
compound: CC[C@@]1(O)C(=O)OCc2c1cc1n(c2=O)Cc2cc3c(CN(C)C)c(O)ccc3nc2-1 [Topotecan]
TC50 cytotoxicity: 3.39 µM

Now look at this entry.
# input Reported TC50 cytotoxicity, compound Cn1cc(-c2ccc(F)c(C(F)(F)F)c2)nc1C1CCN(c2ncnc3[nH]ncc23)CC1 : ____
# output > 10 µM

###

# System: DLD1 NRF2-WT
# procedure_summary: drug sensitivity score (DSS) viability (DSS score); higher = more sensitive; extreme values may be limits of the assay
# applied_conditions: 72 h; CellTiter-Glo viability
Consider the following compounds and their measured drug sensitivity score readings.
Response field accepts a number only; no unit should be typed.

Use the examples below as a reference point.
compound: CC1(C)C(C(=O)Nc2ccc(S(=O)(=O)c3ccc(NC(=O)C4C(C)(C)C4(C)C)cc3)cc2)C1(C)C
assayed_system: DLD1 NRF2-WT
value_observed: 5.5
//
compound: CON(C)C(=O)N1N=C(c2cc(F)ccc2F)S[C@@]1(CCCN)c1ccccc1
assayed_system: DLD1 NRF2-WT
value_observed: 21.5
//
compound: CNC(=O)c1cc(COc2nnc(Nc3ccc(Cl)cc3)c3ccoc23)ccn1
assayed_system: DLD1 NRF2-WT
value_observed: 6.9
//
compound: CNC(=O)c1ccc(C)c(-n2c(C)cc(OCc3ccc(F)cc3F)c(Br)c2=O)c1
assayed_system: DLD1 NRF2-WT
value_observed: 1.3
//
compound: Cn1cnc2c(F)c(Nc3ccc(Br)cc3Cl)c(C(=O)NOCCO)cc21
assayed_system: DLD1 NRF2-WT
value_observed: 2

# input Form field - read-out: drug sensitivity score; system: DLD1 NRF2-WT; submitted item: CC1=C(/C=C/C(C)=C/C=C/C(C)=C/C(=O)O)C(C)(C)CCC1
# output 17.7

# input Form field - read-out: drug sensitivity score; system: DLD1 NRF2-WT; submitted item: CC[C@@H]1[C@H](F)C(=O)N[C@@H]1COc1nccc2cc(C(N)=O)c(OC)cc12
# output 0.5

# input Form field - read-out: drug sensitivity score; system: DLD1 NRF2-WT; submitted item: COc1cc2c(NC3CCN(C(C)C)CC3)nc(C3CCCCC3)nc2cc1OCCCN1CCCC1
# output 2.4

# input Form field - read-out: drug sensitivity score; system: DLD1 NRF2-WT; submitted item: CC(=O)N(O)CCCCCNC(=O)CCC(=O)N(O)CCCCCNC(=O)CCC(=O)N(O)CCCCCN
# output 4.8

# input Form field - read-out: drug sensitivity score; system: DLD1 NRF2-WT; submitted item: CC(=O)c1cc2c(o1)C(=O)c1ccccc1C2=O
# output 21

###

Consider the following molecules and their measured drug sensitivity score readings.
# System: DLD1 NRF2-WT
# procedure_summary: drug sensitivity score (DSS) cytotoxicity (DSS score); higher = more toxic; extreme values may be limits of the assay
# applied_conditions: 72 h; CellTox Green cytotoxicity
Response field accepts a number only; no unit should be typed.

molecule: Nc1nc2cc(-c3ccc4ncc(C(=O)N5CCOCC5)n4c3)ccc2o1
drug sensitivity score: 0

# input Reported drug sensitivity score, molecule CC(C)(C)c1cc(NC(=O)Nc2ccc(Oc3ccnc4[nH]c(=O)cnc34)cc2F)n(-c2ccccc2)n1 : ____
# output 1.1

# input Reported drug sensitivity score, molecule CCCCNc1ncc(C(=O)NCc2ccc(-n3ccnc3)cc2)c(NC2CCC(O)CC2)n1 (stereo unspecified) : ____
# output 0

# input Reported drug sensitivity score, molecule COc1ccc(-c2ccc3c(N4CCOC[C@@H]4C)nc(N4CCOC[C@@H]4C)nc3n2)cc1CO : ____
# output 0

# input Reported drug sensitivity score, molecule C=CC(=O)Nc1cc(Nc2nccc(-c3cn(C)c4ccccc34)n2)c(OC)cc1N(C)CCN(C)C : ____
# output 0.7

# input Reported drug sensitivity score, molecule COc1cc2/c(=N/c3ccc(Br)cc3F)nc[nH]c2cc1OCC1CCN(C)CC1 : ____
# output 0

# input Reported drug sensitivity score, molecule Cn1cc(-c2ccc(F)c(C(F)(F)F)c2)nc1C1CCN(c2ncnc3[nH]ncc23)CC1 : ____
# output 0

# input Reported drug sensitivity score, molecule C[C@]1(O)C[C@@H](c2nc(-c3ccc4ccc(-c5ccccc5)nc4c3)c3c(N)nccn32)C1 : ____
# output 0

# input Reported drug sensitivity score, molecule CCCCCCCCCCCCCCCCCCOP(=O)([O-])OC1CC[N+](C)(C)CC1 : ____
# output 0.9

# input Reported drug sensitivity score, molecule COc1cc([C@@H]2c3cc4c(cc3[C@@H](O[C@@H]3O[C@@H]5CO[C@@H](C)O[C@H]5[C@H](O)[C@H]3O)[C@H]3COC(=O)[C@H]23)OCO4)cc(OC)c1O [Etoposide] : ____
# output 2.7

# input Reported drug sensitivity score, molecule CNC(=O)c1ccc(-c2cnc3ncc(Cc4ccc5ncccc5c4)n3n2)cc1F : ____
# output 0

###

Consider the following molecules and their measured drug sensitivity score readings.
# System: DLD1 NRF2-WT
# procedure_summary: drug sensitivity score (DSS) cytotoxicity (DSS score); higher = more toxic; extreme values may be limits of the assay
# applied_conditions: 72 h; CellTox Green cytotoxicity

molecule: CCc1cncnc1N1CCN(Cc2nc3cc(C(F)(F)F)ccc3[nH]2)CC1
value_observed: 0

# input Reported drug sensitivity score, molecule C[C@H]1CNCCCN1S(=O)(=O)c1cccc2cncc(F)c12 [Ripasudil] : ____
# output 0

# input Reported drug sensitivity score, molecule C=C1C[C@@H]2CC[C@@]34C[C@H]5O[C@H]6[C@@H](O3)[C@H]3O[C@H](CC[C@@H]3O[C@H]6[C@H]5O4)CC(=O)C[C@@H]3[C@@H](OC)[C@@H](C[C@H](O)CN)O[C@H]3C[C@H]3O[C@@H](CC[C@@H]1O2)C[C@@H](C)C3=C [Eribulin] : ____
# output 3.3

# input Reported drug sensitivity score, molecule CNC(=O)c1ccccc1Nc1cc(Nc2ccc(N3CCOCC3)cc2OC)ncc1C(F)(F)F [VS-4718] : ____
# output 0

# input Reported drug sensitivity score, molecule CN1CCN(C(=O)c2ccc3cc(CCNc4ncnc5ccc(C#N)cc45)ccc3c2)CC1 [Senexin B] : ____
# output 0

# input Reported drug sensitivity score, molecule CCCOc1ccn2c(C(C)=O)cc(-c3ccccc3S(C)(=O)=O)c2c1 [GSK2801] : ____
# output 0

# input Reported drug sensitivity score, molecule C/C=C1\NC(=O)[C@H]2CSSCC/C=C/[C@H](CC(=O)N[C@H](C(C)C)C(=O)N2)OC(=O)[C@H](C(C)C)NC1=O [Romidepsin] : ____
# output 9.6
